Where do these numbers come from? They come from ChEMBL document CHEMBL4270630.

experiment: Cytotoxicity against MDCK cells assessed as alteration in cell morphology after 3 days by microscopic method
Assay type: cell-based, Canis lupus familiaris
stated conditions: dog
# MCC at 72 h >= 20 µM gives class 1, anything below gives class 0

Task item: Test whether the compound CCCCCCSC1=C(SCCCCCC)C(=O)N([C@H]2C(=O)N[C@@H]3Cc4ccc(c(Cl)c4)Oc4cc5cc(c4O)Oc4ccc(cc4Cl)[C@@H](O[C@@H]4O[C@H](CO)[C@@H](O)[C@H](O)[C@H]4NC(C)=O)[C@H]4NC(=O)[C@H](NC(O)[C@@H]5NC(=O)[C@@H](NC3=O)c3cc(O)cc(c3)Oc3cc2ccc3O)c2ccc(O)c(c2)-c2c(O)cc(O)cc2[C@H](C(=O)O)NC4=O)C1=O (stereo partly specified) records MCC at 72 h of 20 µM or higher.
Reply: class 0

Task item: Another compound: NC(=O)c1ncn([C@@H]2O[C@H](CO)[C@@H](O)[C@H]2O)n1
Reply: class 1

Task item: Another compound: CCCCCCCCCCCCOCc1cn([C@H]2C(=O)N[C@@H]3Cc4ccc(c(Cl)c4)Oc4cc5cc(c4O)Oc4ccc(cc4Cl)[C@@H](O[C@@H]4O[C@H](CO)[C@@H](O)[C@H](O)[C@H]4NC(C)=O)[C@H]4NC(=O)[C@H](NC(O)[C@@H]5NC(=O)[C@@H](NC3=O)c3cc(O)cc(c3)Oc3cc2ccc3O)c2ccc(O)c(c2)-c2c(O)cc(O)cc2[C@H](C(=O)O)NC4=O)nn1 (stereo partly specified)
Reply: class 0

Task item: Another compound: CC(=O)N[C@H]1[C@H](O[C@@H]2c3ccc(c(Cl)c3)Oc3cc4cc(c3O)Oc3ccc(cc3Cl)C[C@H]3NC(=O)[C@H](NS(=O)(=O)c5ccc(C)cc5)c5ccc(O)c(c5)Oc5cc(O)cc(c5)[C@H](NC3=O)C(=O)N[C@H]4C(O)N[C@H]3C(=O)N[C@H]2C(=O)N[C@@H](C(=O)O)c2cc(O)cc(O)c2-c2cc3ccc2O)O[C@H](CO)[C@@H](O)[C@@H]1O (stereo partly specified)
Reply: class 1

Task item: Another compound: CC(N)C12CC3CC(CC(C3)C1)C2 (stereo unspecified)
Reply: class 1

Task item: Another compound: CCCCCCCCCCCCSC1=C(SCCC)C(=O)N([C@H]2C(=O)N[C@@H]3Cc4ccc(c(Cl)c4)Oc4cc5cc(c4O)Oc4ccc(cc4Cl)[C@@H](O[C@@H]4O[C@H](CO)[C@@H](O)[C@H](O)[C@H]4NC(C)=O)[C@H]4NC(=O)[C@H](NC(O)[C@@H]5NC(=O)[C@@H](NC3=O)c3cc(O)cc(c3)Oc3cc2ccc3O)c2ccc(O)c(c2)-c2c(O)cc(O)cc2[C@H](C(=O)O)NC4=O)C1=O (stereo partly specified)
Reply: class 1

Task item: Another compound: CCCCCCCCCCOCc1cn([C@H]2C(=O)N[C@@H]3Cc4ccc(c(Cl)c4)Oc4cc5cc(c4O)Oc4ccc(cc4Cl)[C@@H](O[C@@H]4O[C@H](CO)[C@@H](O)[C@H](O)[C@H]4NC(C)=O)[C@H]4NC(=O)[C@H](NC(O)[C@@H]5NC(=O)[C@@H](NC3=O)c3cc(O)cc(c3)Oc3cc2ccc3O)c2ccc(O)c(c2)-c2c(O)cc(O)cc2[C@H](C(=O)O)NC4=O)nn1 (stereo partly specified)
Reply: class 0

Task item: Another compound: CC(=O)N[C@H]1[C@H](O[C@@H]2c3ccc(c(Cl)c3)Oc3cc4cc(c3O)Oc3ccc(cc3Cl)C[C@H]3NC(=O)[C@H](NS(=O)(=O)c5ccc(-c6ccccc6)cc5)c5ccc(O)c(c5)Oc5cc(O)cc(c5)[C@H](NC3=O)C(=O)N[C@H]4C(O)N[C@H]3C(=O)N[C@H]2C(=O)N[C@@H](C(=O)O)c2cc(O)cc(O)c2-c2cc3ccc2O)O[C@H](CO)[C@@H](O)[C@@H]1O (stereo partly specified)
Reply: class 0
